Data credit: patent EP4659811A1

Biological target: VP1 capsid protein on BKV pseudovirions of genotype Ia (BK-D; JF894228) (BK virus genotype Ia (BK-D))
Test: cell-based or functional assay
Measured Neutralization PSV IC50, listed per entry for reference.

binder	Neutralization PSV IC50
antibody C10P8 (antibody, V domains shown) VH: QVQLQESGPGLVKPSQTLSLTCTVSGGSISSGRYYWSWIRQPAGKGLEWIGRVYFSGSTNYNPSLKNRVTLSVDTSKNQFSLKLSSVIAADTAVYYCARAVRDYGDSYSFDYWGQGTLVTVSS VL: QSALTQPASVSGSPGQSITISCTGSSSDIGGYNYVSWYQVHPGKAPHLKIYDVVNRPSGVSNRFPGSKSGNTASLTISGLLADDEAYYYCCSYSIRGTPVFGGGTKLTVL	> 12.5 µg/mL
antibody E5P6 (antibody, V domains shown) VH: EVQLVESGGGVVQPGRSLRLSCAASGFIFNNHGMHWVRQAPGKGLEWVAGISYDGKKEYYIGSVKGRFTISRDNSRNTLYLHMNGLRPEDTAVYYCAKEAYGSGSPCDYWGQGTLVTVSS VL: EIVLTQSPGTLSLSPGERATLSCRASQRVSSNYLAWYQQKPGQAPRLLIYGASSRATGIPDRFSGSGSGTDFTLTISRLEPEDFAVYYCQQYGTSPRSFGRGTKLEIK	> 50 µg/mL
antibody G8P7 (antibody, V domains shown) VH: QLQLQESGPGLVQPSETLSLTCTVSGGYISTSSYYWGWIRQPPGKGLEWIGSIEYSGSTYYNPSLKSRVTISVDTSKNQFSLKLSSVTAADTAVYYCASANSKYYDSGGYYAPGALDLWGQGTMVTVSS VL: EIVMTQSPATLSVSPGERATLSCRASQSVSSHLAWYQHKRGQAPRLLIYAASSRATGIPARFSGRGSGTEFTLTISSLQSEDFAVYYCQQYNNWPPGYSFGQGTKLEIK	> 50 µg/mL
